Values compiled from patent US7737143B2.

Target: human JAK3 (Homo sapiens, UniProt P52333)
Construct: The kinase domain of human JAK3 was amplified from U937mRNA; His tag (pFastBac HTb vector; nickel chelate purification) (N); made in house; host or cells: baculovirus; Sf9 for virus, High Five insect cells for production
Sequence (P52333 822-1111 limits assumed): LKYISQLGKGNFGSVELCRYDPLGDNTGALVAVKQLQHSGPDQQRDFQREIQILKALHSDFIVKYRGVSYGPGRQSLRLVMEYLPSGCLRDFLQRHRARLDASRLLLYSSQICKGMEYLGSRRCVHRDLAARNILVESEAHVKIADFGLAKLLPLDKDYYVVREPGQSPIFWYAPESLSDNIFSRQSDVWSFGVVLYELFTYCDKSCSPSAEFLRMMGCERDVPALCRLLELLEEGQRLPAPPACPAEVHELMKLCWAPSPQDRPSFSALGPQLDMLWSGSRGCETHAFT
Assay: JAK kinase assay (ELISA or Alphascreen), Jak3
Type: biochemical
Settings: standard conditions, read-out: Jak3 inhibition of enzyme activity
Measure Name: inhibition at 20 µM

Sample records with inhibition at 20 µM:
C[C@H](Nc1cncc(-n2cnc3ncccc32)n1)c1ccc(F)cc1	< 50%
C[C@H](Nc1cncc(-n2cnc3cc(-c4nn[nH]n4)ccc32)n1)c1ccc(F)cc1	< 50%
C[C@H](Nc1cncc(-n2cnc3cccnc32)n1)c1ccc(F)cc1	< 50%

Reported inhibition at 20 µM ( Cc1ncc(-n2cnc3ccc(C#N)cc32)nc1N[C@@H](C)c1ccccc1 ) = ≥ 50%

Reported inhibition at 20 µM ( N#Cc1ccc2ncn(-c3cncc(NC4Cc5ccccc5C4)n3)c2c1 ) = < 50%

Reported inhibition at 20 µM ( CC(Nc1cncc(-n2cnc3ccc(CN4CCN(C)CC4)cc32)n1)c1ccc(F)cc1 (stereo not shown) ) = < 50%

Reported inhibition at 20 µM ( C[C@H](Nc1cncc(-n2cnc3ccc(-c4nn[nH]n4)cc32)n1)c1ccc(F)cc1 ) = < 50%

----------
inhibition at 20 µM reference
Target: human JAK2 (Homo sapiens, UniProt O60674)
Construct: The kinase domain of human JAK2 was amplified from U937mRNA; His tag (pFastBac HTc vector; nickel chelate purification) (N); made in house; host or cells: baculovirus; Sf9 for virus, High Five insect cells for production
Sequence (O60674 849-1124 limits assumed): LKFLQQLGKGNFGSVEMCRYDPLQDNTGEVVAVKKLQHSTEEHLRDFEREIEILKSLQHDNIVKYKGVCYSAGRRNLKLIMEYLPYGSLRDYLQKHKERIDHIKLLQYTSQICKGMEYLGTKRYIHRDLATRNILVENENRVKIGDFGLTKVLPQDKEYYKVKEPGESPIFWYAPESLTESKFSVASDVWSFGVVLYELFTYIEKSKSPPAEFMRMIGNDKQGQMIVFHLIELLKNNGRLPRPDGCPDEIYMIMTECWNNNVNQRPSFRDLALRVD
Experiment: JAK kinase assay (ELISA or Alphascreen), Jak2
Assay type: biochemical
Conditions: standard conditions, read-out: Jak2 inhibition of enzyme activity

Sample records with inhibition at 20 µM:
C[C@H](Nc1cncc(-n2cnc3ncccc32)n1)c1ccc(F)cc1	< 50%
N#Cc1ccc2ncn(-c3cncc(NC4CCc5cc(Br)ccc54)n3)c2c1 (centres unmarked)	< 50%
O=S(=O)(Nc1ccc(-c2cncc(-n3cnc4ccccc43)n2)cc1)c1ccccc1	≥ 50%
CC(Nc1cncc(-n2cnc3ccc(C#N)cc32)n1)c1ccccn1 (centres unmarked)	≥ 50%

Reported inhibition at 20 µM ( COc1cccc2c1CCC2Nc1cncc(-n2cnc3cc(C#N)ccc32)n1 (centres unmarked) ) = < 50%

----------
Target: human JAK3 (Homo sapiens, UniProt P52333)
Construct: The kinase domain of human JAK3 was amplified from U937mRNA; His tag (pFastBac HTb vector; nickel chelate purification) (N); made in house; host or cells: baculovirus; Sf9 for virus, High Five insect cells for production
Experiment: JAK kinase assay (ELISA or Alphascreen), Jak3
Format: biochemical
Details: standard conditions, read-out: Jak3 inhibition of enzyme activity
inhibition at 20 µM reference

Sample records with inhibition at 20 µM:
c1cncc(-c2cncc(-n3cnc4ccccc43)n2)c1	< 50%
CC(Nc1cncc(-n2cnc3cc(C#N)ccc32)n1)c1cccc(C(F)(F)F)c1 (stereo not drawn)	< 50%
Nc1ccc(-c2cncc(-n3cnc4ccccc43)n2)cc1	< 50%
N#Cc1ccc2c(c1)ncn2-c1cncc(NC2CCc3cc(Br)ccc32)n1 (stereo not drawn)	< 50%
CC[C@H](Nc1cncc(-n2cnc3ccc(C#N)cc32)n1)c1ccccc1	≥ 50%
N#Cc1ccc2c(c1)ncn2-c1cncc(N2CCc3ccccc3C2)n1	< 50%
C[C@H](Nc1cncc(-n2cnc3ccc(CN4CCCCC4)cc32)n1)c1ccc(F)cc1	≥ 50%
C[C@H](Nc1cncc(-n2cnc3ccc(C#N)cc32)n1)c1ccccc1	≥ 50%

Reported inhibition at 20 µM ( CCCC(Nc1cncc(-n2cnc3ccccc32)n1)c1ccccc1 (stereo not drawn) ) = < 50%

Reported inhibition at 20 µM ( CC(Nc1cncc(-n2cnc3ccc(C#N)cc32)n1)c1cc(F)cc(F)c1 (stereo not drawn) ) = ≥ 50%

Reported inhibition at 20 µM ( CC(Nc1cncc(-n2cnc3ccncc32)n1)c1ccc(F)cc1 (stereo not drawn) ) = < 50%

Reported inhibition at 20 µM ( Cc1ncc(-n2cnc3ccc(C#N)cc32)nc1N[C@@H](C)c1cccc(F)c1 ) = ≥ 50%

Reported inhibition at 20 µM ( COc1cc(-c2cncc(-n3cnc4ccccc43)n2)ccc1O ) = < 50%
